- experiment: folding stability dG unfold from chymotrypsin proteolysis; higher = more stable
Assign class by folding stability dG unfold: not lower than 2 kcal/mol means class 1; lower than 2 kcal/mol means class 0.

Worked examples follow.
ordered_residues	answer_label
SAMELEFETDGSVSVEELIEEFKKAFPLVKEIEAEAEPIPYIPKYKVRFKIKLVPVPTPEEIEEFGKKKSAG [r14_645_TrMRF]	class 0
SAGGSAGGSAGGDVLLFVDESTGLADARALAEALGLKDVVIVPVPPAKPVVLNADGSPTSAGGSAGGSAGGS [r10_1083_TrMRF]	class 0
SAMKKTETRVLEIRIGDYLAKIFLTEYEDGRVETLIEVYGPDPAVVEEVKDFLEKLDPDLEITEIVVLDSAG [r14_611_TrMRF]	class 1
SAGMMEIVEVKEVDGRLELKIKDKETGEEFTITVERKEDGELKVTIEMSDEAAERLRELFPEIDRLEIKSAG [r5_933_TrROS_Hall]	class 1
SAEKPPVVTLEIEIEIVVKDENGKTHKRKFRLTVTFYPDGTVEISIYDENGELIETITLPPGATLEELLSAG [r14_559_TrROS_Hall]	class 1

Now let's try a different one.
Ask: Reported folding stability dG unfold reaches at least 2 kcal/mol for SAGGSAGGSMKLPPELKGKKIRIRVRNKNGETVEAEATVLEDGTIEIKIEGLSEEEITEIEIESAGGSAGGS [r12_477_TrROS_Hall] ?
Reply: class 1

---

Would you mind telling me the reported folding stability dG unfold of each entry?
- experiment: folding stability dG unfold from chymotrypsin proteolysis; higher = more stable
Give bare numbers, in kcal/mol.

# map each sequence to its folding stability dG unfold
1. SAGGEKTYMVRIDIEYRTPGKPREIDLMVPIKSPEQAREQLDKIADFLAKEHPDNWRIKVEIYPMEDSAGGS [r16_475_TrROS]
2. SAGIEEEVRKLFPDRELEVKVKEKRLKAPNGVPVTLYEVTVTFPDGSRYKLTLTKTPNSVTLSVTPLDASAG [r14_28_JUSTAS]
3. SGVEYIEIPLEVTLDAPLEKAFEFLEDLAEEFGLGDIEVLEVEVDPETGKVRVKALARIAIAPPPPPSLESA [r9_918_TrMRF]

Reply:
2.49
3.34
3.53

# map each sequence to its folding stability dG unfold
1. SAGPPVLALFTGSPEDVQELLDRLPPDFEVEVGRLPDLYVARFPPDVPPGTVLLPGADGRPAVVEVVEASAG [r5_123_TrMRF]
2. SAGGSAGGSEEKKIKIKIKIERDPENPNTYRITIEDEETGERYELEITVPPPKPKVFFFPKKKSAGGSAGGS [r12_985_TrROS_Hall]
3. SKKKTLKIVDKETNVVIEMTAEELAEKLGLSVEDLEIEVVDLKTKEVKTIKIKLPKPKPEEKKKVKEEEKSA [r9_819_TrROS_Hall]

Reply:
1.68
2.19
1.18

---

- experiment: folding stability dG unfold (combined trypsin and chymotrypsin); higher = more stable
Assign class by folding stability dG unfold: not lower than 0.8 kcal/mol means true (1); lower than 0.8 kcal/mol means false (0).

Worked examples follow.
ordered_residues	answer_label
SAGGSASYSSLKITIIDTGTTTTVPPGATTTPTVVKLPDNKTAIITTTTPPDGTTATTVELFDNDKSAGGSA [r15_559_JUSTAS]	false (0)
SAGGSAGGSKFEITEVSVELVEVDGKLYLKVSMTIKNEDGSTYKISLVYDLENNELYLSIEKVSAGGSAGGS [r12_1035_TrROS_Hall]	true (1)
SAGGEEVILTLPDGSPVRVIPDEGTASFELPGYRVETEVLPDGRIRLTVRDPAAGALVRELDLGLLRSAGGS [r16_760_JUSTAS]	false (0)

Ask: Reported folding stability dG unfold reaches at least 0.8 kcal/mol for SAGMKPGETITIVLPDGTKIEIKILENGEVEIVKIEKKEDGTYKITIRVKVNGKEIEKEITLPPGAKILSAG [r5_394_TrROS_Hall] ?
Reply: true (1)

Ask: Reported folding stability dG unfold reaches at least 0.8 kcal/mol for SAGGSAGGMIVELPTPDDETLTLTTRPTPDGSVPVTATRLTPDSTEVTTVSTADPAVVELVAAASAGGSAGG [r6_607_JUSTAS] ?
Reply: false (0)

Ask: Reported folding stability dG unfold reaches at least 0.8 kcal/mol for SAGGMKLKPVKEGEEIEIELEIVDKETKKVYKVKAKITVVKDKETKEYYVKIEIENPETGEKYTFLLKSAGG [r13_262_TrROS_Hall] ?
Reply: true (1)

Ask: Reported folding stability dG unfold reaches at least 0.8 kcal/mol for VSPLDLEGPGGLPPSELRRVSVLREETDPSVGEKRLSPVGTLFVPKDTSPEEVEAIIAARPDITRVEVRLLS [r1_132_JUSTAS] ?
Reply: false (0)

Ask: Reported folding stability dG unfold reaches at least 0.8 kcal/mol for SAGGDLIERVAKELMEKFPMKPGEPRPITIEIPYPDGYRIKVDIPVRVNPDNGEFRFKFDIKEIEPWSAGGS [r16_634_TrROS] ?
Reply: true (1)

Ask: Reported folding stability dG unfold reaches at least 0.8 kcal/mol for SAGGSAGGVVVVAKFPTREAVFVAPESLTPEQFAEALRRELGNPDAPLVDLEVRRVTPEELLAASAGGSAGG [r6_120_TrMRF] ?
Reply: false (0)

Ask: Reported folding stability dG unfold reaches at least 0.8 kcal/mol for SAGGSAKITIEKVDDQYRITVTVPVYDENGNKVPLTFDFVYPSDDPDAFLDDVIRRIRELNPDLEKSAGGSA [r15_1050_TrMRF] ?
Reply: true (1)

---

- experiment: folding stability dG unfold from chymotrypsin proteolysis; higher = more stable
measured_endpoint: folding stability dG unfold (kcal/mol)
Answers are plain numbers, in kcal/mol.

Answered cases to consult:
ordered_residues	readout_unit	data_value
SAMKTYTFEFTLTVPPDTPLEEVKAKVKEKVKAELKKLGIPLPETAKIEIKKVKEEGNKIYFKVTVTNKSAG [r14_735_JUSTAS]	kcal/mol	4.06
SAGGSAGGSAGGSSMSISVLEVRELPNGTLEITTVDYNPDNGYTTTTTYTLPPGQPLLISAGGSAGGSAGGS [r4_133_JUSTAS]	kcal/mol	1.62
SAGGSAGGSAGGSMKIELPEGAEITEIKKLPNGTYEMTIRVDGKELKIRFVDGKLVIVPSAGGSAGGSAGGS [r4_280_TrROS_Hall]	kcal/mol	3.51

Now for another entry.
Ask: Find the recorded folding stability dG unfold belonging to SKKVTIMIMIRRRDPEDGKYRPIPPEFILEMVRRARKKGKKVKITFMNPDNPWAKRLAKRAKEEGIKIEWSA [r9_468_TrROS] and report it.
Reply: 2.1

---

- experiment: folding stability dG unfold from chymotrypsin proteolysis; higher = more stable
Would you mind telling me the reported folding stability dG unfold of each entry?
Answers are plain numbers, in kcal/mol.

Answered cases to consult:
ordered_residues	folding stability dG unfold / kcal/mol
SAETVTFRVGDVEIVARRLPDGYVVVTEKVPEEYPEAELVLSLVRVYPDGTVEVESRLYRIDPETGVIGSAG [r14_724_TrMRF]	2.67
SAGGSAGGSAGELSLEEIKKLAPDETAVVKLPPSPETIVITVSTNPNGTLKIEIKRYPPGSAGGSAGGSAGG [r11_13_JUSTAS]	0.657
SAGGSAGGSGMVTVKRTVPPGNVEEAVNALTPPNLTITDVKVTELPDSVEVTVTVEDPFPGLVSAGGSAGGS [r12_445_JUSTAS]	0.587
SAEEPEVVRLEIRITVVERDEDGRLREREVTLEVEVLPDGRVVIRVDGRVFVIDLETGELVEVLEDVEPSAG [r14_821_TrROS_Hall]	4.14
SAGGSMPTLKPDEILTLSSTTEPLPSGGLRGRTVTLKKIPGTGKFVTITKYSYQPPDGPITSATEILLSAGG [r13_263_JUSTAS]	0.585
SAMEYTLEFDNLKGLTADEIEKAFRDEGYPDVKINGIRRNPDDWTITVHYGPGMPPNRVQNAIRKAIQESAG [r14_657_TrROS]	1.87
SAGGGFSVSTGTLTDPVTGKPITLTVTNLPDGVSRVTVTLEDGKTFEFTFPANNPPTPEQVAEAVKAFSAGG [r13_492_TrMRF]	3.63
SAGGLEILEVDPDTYTITIRFGDRPLEFTVPPDYPPTITITEDPDGSVTLTIEVPDRTETFTIPRELVESAG [r5_500_TrMRF]	1.84
SAGGGMTPVKKEYVVTLPVPPGMTEEEARELAERAAEELRPELEAKGLAYEVTFELSPEGLVTVTVVASAGG [r13_529_JUSTAS]	2.41
SMKDATSTSIGSRTYTYPNTDPSVSPEELKEKVIEEIKKEPELKAVEITVEVDPSTGTVTITINLTKLVKSA [r9_1001_JUSTAS]	1.76

# map each sequence to its folding stability dG unfold
1. SAGGSAGGSAGGGPNIRTVTETTVEPTPDSVVTTRPVYYVDPSGTVLGSETTTTVDPNTTSAGGSAGGSAGG [r7_812_JUSTAS]
2. SAGGSAGGSGSSVERSPSGEVVTTTPTAGGTLRTVHDPSGTRTLTDVASGKVLATYTPAVPVASAGGSAGGS [r12_235_JUSTAS]
3. SAGGSAGGSMKITINKWDPDNGNIMVTIQMPGQPVEIMIPWNNVDKLLEKLPFPGMKIDEIYPSAGGSAGGS [r12_23_TrROS]

Reply:
1: 0.179; 2: -0.638; 3: 0.718

# map each sequence to its folding stability dG unfold
1. SAGGSSFTGTVTPVKVDPVNPDLVTVATTLTWPDGTTVPLTRTIPRSVYDSLPENISISVTLSPPSSAGGSA [r2_128_JUSTAS]
2. SAGGSAGGPNYFVRITIKMRKPNGKPIGEFPIWIPFKSKEQARSLADELAQMPGIEKVDIELVPSAGGSAGG [r6_475_TrROS]
3. SAGGNKNGKPKPTVPFKIMVMKPKPRRNDNNGQEEPRYDMRPVEIEFPLGEEIDLEEALENPDYIFIMSAGG [r13_753_TrROS]
4. SAGGSAGGSAGGSVYIDPDKGYLVMWNEEDGYIVKYPIDPPNKIPSVDIEPIPPGDPLFSAGGSAGGSAGGS [r4_409_TrROS]
5. SAGGKKKITITIEEVEELENGPLVYRVTIEVDGKTYEILIEADSLEEAKAAAEKLAEELNVEVTIEPVSAGG [r13_750_TrROS_Hall]

Reply:
1.33
2.68
0.276
1.13
4.22

# map each sequence to its folding stability dG unfold
1. SAGGKEKKKEKEEKKKKPKPKFIKIKLSPEELLKLAKELPNIDRIFVEVDGKLYEFDAKTGKIVEVDSAGGS [r16_214_TrROS_Hall]
2. SAGGKEKVKIKIKIIDKKTNKVYEAEATFDKETGKVTITFPDGSKITFDLKTNKLYIEKDGKIIEIESAGGS [r16_743_TrROS_Hall]
3. SAGGKVKIVKIEIEEVDGKLKIRIVVEVDTPEDLEALKKAGVKKLKVEKRRLPNGRLLVVIEVEVEVKSAGG [r13_506_TrROS_Hall]
4. SAGSSTTETFTHPDGSVVTVTEEELPDGSYRVTSVSYEATPDGTVSALLRKPDGTIITVDSLEELFALESAG [r5_618_JUSTAS]

Reply:
1: 2.4; 2: 3.53; 3: 3.86; 4: 1.51
